B1: HDV Ribozyme (parent)
chain: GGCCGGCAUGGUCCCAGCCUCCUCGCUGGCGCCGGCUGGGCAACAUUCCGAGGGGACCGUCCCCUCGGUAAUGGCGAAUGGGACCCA

- Variants of: B1
- TEST PROTOCOL: self-cleavage, relative activity (ratio to wild type); higher = more cleavage; co-transcriptional
self-cleavage vs 0.3: at or above is fulfilled, below is not fulfilled.

# example entries with known answers
{"MUTATIONS": "G2A C66A", "ASSIGNED LABEL": "not fulfilled"}
{"MUTATIONS": "C75G G76U", "ASSIGNED LABEL": "not fulfilled"}

Ask: Hi, just wondering whether C49U C57G shows self-cleavage of 0.3 or higher.
Reply: fulfilled

Ask: Hi, just wondering whether U20A C44A shows self-cleavage of 0.3 or higher.
Reply: not fulfilled

Ask: Hi, just wondering whether G68U U69G shows self-cleavage of 0.3 or higher.
Reply: fulfilled

Ask: Hi, just wondering whether U46G A83U shows self-cleavage of 0.3 or higher.
Reply: not fulfilled

Ask: Hi, just wondering whether U12G C48A shows self-cleavage of 0.3 or higher.
Reply: fulfilled

Ask: Hi, just wondering whether C7A C21A shows self-cleavage of 0.3 or higher.
Reply: not fulfilled

Ask: Hi, just wondering whether G10U G80A shows self-cleavage of 0.3 or higher.
Reply: not fulfilled

Ask: Hi, just wondering whether G1U A87G shows self-cleavage of 0.3 or higher.
Reply: fulfilled

Ask: Hi, just wondering whether A16G G68U shows self-cleavage of 0.3 or higher.
Reply: fulfilled

Ask: Hi, just wondering whether U12C A16G shows self-cleavage of 0.3 or higher.
Reply: not fulfilled
